B1: library; a variant is named by its letters at N, in order (parent)
chain: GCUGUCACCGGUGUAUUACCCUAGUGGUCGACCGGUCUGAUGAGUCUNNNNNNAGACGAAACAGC

Variants of: B1
Experiment: normalized RNA/DNA level without ligand (relative to sTRSVctl = 100) (log10 (% of sTRSVctl)); ligand: hypoxanthine (xanthine aptamer); higher = less ribozyme self-cleavage, higher mRNA level
Details: HEK293T, reporter: mCherry (pCS4076), ligand present: no
PARAMETER: normalized RNA/DNA level without ligand (log10)
The response must contain the number and no unit.

Q: Give a short answer stating reported normalized RNA/DNA level without ligand (log10) for GACUUA .
A: 1.84

Q: Answer with the recorded normalized RNA/DNA level without ligand (log10) of GCUGCU only.
A: 1.88

Q: Give the reported normalized RNA/DNA level without ligand (log10) for this variant. GGUCCA
A: 1.94

Q: Consider the variant CUAGUG and give its recorded normalized RNA/DNA level without ligand (log10).
A: 1.85

Q: Supply recorded normalized RNA/DNA level without ligand (log10) for AGUCAA here.
A: 1.8

Q: Look up and report measured normalized RNA/DNA level without ligand (log10) for this entry: CGAGCA
A: 1.72

Q: Give recorded normalized RNA/DNA level without ligand (log10). UGUAUG
A: 1.78

Q: State, in one line, measured normalized RNA/DNA level without ligand (log10) of UCUCAA
A: 1.68

Q: Please give the documented normalized RNA/DNA level without ligand (log10) of GAUAUG
A: 1.39

Q: Indicate its recorded normalized RNA/DNA level without ligand (log10); the variant in question is GACUGA
A: 1.76

Q: Note normalized RNA/DNA level without ligand (log10) for the variant shown: GUUAAU
A: 1.8
